Could you please report measured pIC50 for the items listed next?
# Assay Method Text: Antagonist activity at CRTh2 receptor in human isolated eosinophil assessed as inhibition of DK-PGD2-induced shape change after 5 mins by flow cytometry
Please report pIC50 as the negative decimal logarithm of the molar concentration, giving only the number.

Ask | Please look up its pIC50: Cc1c(CC(=O)O)c2cccnc2n1Cc1ccc([S+](C)[O-])cc1 (configuration not stated)
Reply | 7.29

Ask | Please look up its pIC50: `Cc1c(CC(=O)O)c2cccnc2n1Cc1ccc(Cl)cc1`
Reply | 7.64

----------
# Assay Method Text: Antagonist activity at CRTh2 receptor in human isolated eosinophil assessed as inhibition of eotaxin-induced shape change after 5 mins by flow cytometry
pIC50: −log10 of the molar value.
Measured Endpoint: pIC50

Ask | Please look up its pIC50: `Cc1c(CC(=O)O)c2cccnc2n1Cc1ccc(S(C)(=O)=O)cc1`
Reply | < 5.00
